- System: K562 CRISPRi cells
- Experimental protocol: Constant region variant library pooled growth screen, K562
- Type: cell-based, human
- Measurement conditions: sgRNA constant region variants; activity relative to the original, un-modified constant region cr995
Measure: Mean relative activity

INSERT INTO assay_data (molecule, measured) VALUES
  ('cr844 (nucleic acid, listed as DNA, chemistry not fully specified) guide: GTTTAAGAGCTAAGCTGGAAACAGCATAGCAAGTTTAAATAAGGCTAGTCCGTTATCAGCTTGAAAAAGCGGCATTGAGTCAATGCT', 0.6346),
  ('cr712 (nucleic acid, listed as DNA, chemistry not fully specified) guide: GTTTAAGAGCTAAGCTGGAAACACCATAGCAAGTTTAAATAAGGCTAGTCCGTTATCAACTTGAAAAAGTGGCACCGAGTCGGTGCT', 0.7744);

Hey, just so you know, these numbers are from patent US20220259593A1.
